Data origin: patent EP0623131B1

# TEST SUMMARY: DL50 (acute lethal dose)
# APPLIED CONDITIONS: species, route and unit not given
Provide the reported DL₅₀ of each item.

Qu. Look at this molecule and give its reported DL₅₀. CC(CN1CCN(c2cccc(Cl)c2)CC1)Cn1nc2ccccn2c1=O (centres unmarked)
Ans. ≤ 600

Qu. One more molecule: O=c1n(CCCN2CCN(c3cccc(Cl)c3)CC2)nc2ccccn12 [trazodone, Trazodone, reference compound]
Ans. ≥ 200

Qu. Try CC(CCn1nc2ccccn2c1=O)N1CCN(c2cccc(Cl)c2)CC1 (centres unmarked) next.
Ans. ≤ 300

Qu. Field entry: CC1CN(c2cccc(Cl)c2)CCN1CCCn1nc2ccccn2c1=O (centres unmarked)
Ans. 300

Qu. Please do the same for CC1CN(CCCn2nc3ccccn3c2=O)CCN1c1cccc(Cl)c1 (centres unmarked) as well.
Ans. ≤ 600
